src = ChEMBL document CHEMBL5131440

Reported values of solubility kinetic for individual entries
procedureDetails: Solubility of compound in pH 6.5 phosphate buffer by nephelometry
Format: physicochemical
readoutName: solubility kinetic

In [3]: df
Out[3]:
                              compoundsmiles      reading
 0   O=C(Nc1ccc(F)cc1)N1CCc2[nH]c3ccccc3c2C1    6.3 µg/mL
 1  O=S(=O)(c1ccc(Cl)cc1)N1CCc2[nH]c3ccccc3c2C1    1.6 µg/mL
 2  O=S(=O)(c1ccc(F)cc1)N1CCc2c([nH]c3ccccc23)C1  < 1.6 µg/mL
 3  O=C(O)c1ccc2[nH]c3c(c2c1)CN(S(=O)(=O)c1ccc(F)cc1)CC3     50 µg/mL
 4  NC(=O)c1ccc2[nH]c3c(c2c1)CN(S(=O)(=O)c1ccc(F)cc1)CC3    6.3 µg/mL
 5   O=S(=O)(C1CCOCC1)N1CCc2[nH]c3ccccc3c2C1     25 µg/mL
 6  O=C(O)c1ccc(S(=O)(=O)N2CCc3[nH]c4ccccc4c3C2)cc1     25 µg/mL
 7   O=S(=O)(c1cccnc1)N1CCc2[nH]c3ccccc3c2C1    6.3 µg/mL
 8          CS(=O)(=O)N1CCc2[nH]c3ccccc3c2C1     25 µg/mL
 9  N#Cc1ccc2[nH]c3c(c2c1)CN(S(=O)(=O)c1ccc(F)cc1)CC3    1.6 µg/mL
10   O=S(=O)(c1ccccc1)N1CCc2[nH]c3ccccc3c2C1    1.6 µg/mL

---

Tested on: Schistosoma mansoni
procedureDetails: Antischistosomal activity against Schistosoma mansoni NTS assessed as reduction in parasite viability measured at 24 hrs interval for 72 hrs by bright-field microscopy
Type: functional, organism-based
pIC50: −log10 of the molar value.
Reported values of pIC50 for individual entries
readoutName: pIC50

In [3]: df
Out[3]:
                             compoundsmiles         systemtested  reading
0  O=S(=O)(c1ccc(Br)cc1)N1CCc2[nH]c3ccccc3c2C1  Schistosoma mansoni     5.31
1  CS(=O)(=O)c1ccc(S(=O)(=O)N2CCc3[nH]c4ccccc4c3C2)cc1  Schistosoma mansoni     5.48
2  O=S(=O)(c1ccc(F)cc1)N1CCc2[nH]c3ccccc3c2C1  Schistosoma mansoni     5.92

---

Reported values of intrinsic clearance (CLint) for individual entries
procedureDetails: Intrinsic clearance in mouse liver microsomes assessed per mg protein at 1 uM preincubated for 5 to 10 mins followed by NADPH-regenerating system addition and measured after 2 to 60 mins by LC-MS/MS analysis
Type: ADME, Microsome
conditionSummary: time 2-60 min
readoutName: intrinsic clearance (CLint) (µL/min)

                              compoundsmiles  unitlabel  censorsymbol  reading
 0  O=S(=O)(c1ccc(F)cc1)N1CCc2c([nH]c3ccccc23)C1     µL/min             =      445
 1  O=C(O)c1ccc(S(=O)(=O)N2CCc3[nH]c4ccccc4c3C2)cc1     µL/min             <        7
 2    O=C(c1ccc(F)cc1)N1CCc2[nH]c3ccccc3c2C1     µL/min             =      184
 3  O=S(=O)(c1ccc(C(F)(F)F)cc1)N1CCc2[nH]c3ccccc3c2C1     µL/min             =      431
 4  O=C1CCN(S(=O)(=O)c2ccc(F)cc2)CC(=O)c2ccccc2N1     µL/min             =      107
 5  O=S(=O)(c1cnc[nH]1)N1CCc2[nH]c3ccccc3c2C1     µL/min             =       17
 6  NC(=O)Cn1c2c(c3ccccc31)CN(S(=O)(=O)c1ccc(F)cc1)CC2     µL/min             =      176
 7  O=S(=O)(c1ccc(F)cc1)N1CCc2[nH]c3ccccc3c2C1     µL/min             >      866
 8  O=S(=O)(Cc1ccc(F)cc1)N1CCc2[nH]c3ccccc3c2C1     µL/min             =      688
 9  N#Cc1ccc2[nH]c3c(c2c1)CN(S(=O)(=O)c1ccc(F)cc1)CC3     µL/min             =      230
10  O=C(c1ccc2[nH]c3c(c2c1)CN(S(=O)(=O)c1ccc(F)cc1)CC3)N1CCOCC1     µL/min             =      120
11  O=S(=O)(c1ccc(F)cc1)N1CCc2[nH]c3ccccc3c2CC1     µL/min             >      866
12  O=S(=O)(c1ccc(F)cc1)N1CCc2[nH]c3ncccc3c2C1     µL/min             =      339
13          CS(=O)(=O)N1CCc2[nH]c3ccccc3c2C1     µL/min             =       21
14  NC(=O)c1ccc2[nH]c3c(c2c1)CN(S(=O)(=O)c1ccc(F)cc1)CC3     µL/min             =       81
15   O=S(=O)(C1CCOCC1)N1CCc2[nH]c3ccccc3c2C1     µL/min             =      674
16  Cc1ccc(S(=O)(=O)N2CCc3[nH]c4ccccc4c3C2)cc1     µL/min             =      540
17  O=S(=O)(c1ccc(Cl)cc1)N1CCc2[nH]c3ccccc3c2C1     µL/min             =      607
18  O=C(O)c1ccc2[nH]c3c(c2c1)CN(S(=O)(=O)c1ccc(F)cc1)CC3     µL/min             <        7
19   O=C(Nc1ccc(F)cc1)N1CCc2[nH]c3ccccc3c2C1     µL/min             =      130
20  O=S(=O)(c1ccc(Br)cc1)N1CCc2[nH]c3ccccc3c2C1     µL/min             =      446
21  CS(=O)(=O)c1ccc(S(=O)(=O)N2CCc3[nH]c4ccccc4c3C2)cc1     µL/min             =      156

---

procedureDetails: Intrinsic clearance in human liver microsomes assessed per mg protein at 1 uM preincubated for 5 to 10 mins followed by NADPH-regenerating system addition and measured after 2 to 60 mins by LC-MS/MS analysis
Type: ADME, Microsome
conditionSummary: time 2-60 min
So basically every entry gets a class from its intrinsic clearance, ranges being low class: < 50 µL/min; middle class: ≥ 50 µL/min and < 100 µL/min; high class: ≥ 100 µL/min

>>> print(df.to_string())
                             compoundsmiles      category
0  O=C(O)c1ccc2[nH]c3c(c2c1)CN(S(=O)(=O)c1ccc(F)cc1)CC3     low class
1  NC(=O)c1ccc2[nH]c3c(c2c1)CN(S(=O)(=O)c1ccc(F)cc1)CC3    high class
2  N#Cc1ccc2[nH]c3c(c2c1)CN(S(=O)(=O)c1ccc(F)cc1)CC3    high class
3          CS(=O)(=O)N1CCc2[nH]c3ccccc3c2C1     low class
4  O=S(=O)(c1ccc(F)cc1)N1CCc2c([nH]c3ccccc23)C1    high class
5  O=C1CCN(S(=O)(=O)c2ccc(F)cc2)CC(=O)c2ccccc2N1     low class
6  O=S(=O)(c1ccc(F)cc1)N1CCc2[nH]c3ccccc3c2CC1    high class
7   O=S(=O)(C1CCOCC1)N1CCc2[nH]c3ccccc3c2C1     low class
8  O=S(=O)(c1ccc(Cl)cc1)N1CCc2[nH]c3ccccc3c2C1  middle class
9  CS(=O)(=O)c1ccc(S(=O)(=O)N2CCc3[nH]c4ccccc4c3C2)cc1  middle class

---

Reported values of solubility kinetic for individual entries
procedureDetails: Solubility of compound in pH 2 0.01 M HCl by nephelometry
Type: physicochemical
readoutName: solubility kinetic (µg/mL)

                              compoundsmiles         readoutname  censorsymbol  reading
 0   O=C(Nc1ccc(F)cc1)N1CCc2[nH]c3ccccc3c2C1  solubility kinetic             =      6.3
 1          CS(=O)(=O)N1CCc2[nH]c3ccccc3c2C1  solubility kinetic             =       25
 2  O=C(c1ccc2[nH]c3c(c2c1)CN(S(=O)(=O)c1ccc(F)cc1)CC3)N1CCOCC1  solubility kinetic             =     12.5
 3   O=S(=O)(c1ccccc1)N1CCc2[nH]c3ccccc3c2C1  solubility kinetic             =      1.6
 4  O=S(=O)(c1ccc(F)cc1)N1CCc2c([nH]c3ccccc23)C1  solubility kinetic             <      1.6
 5  NC(=O)c1ccc2[nH]c3c(c2c1)CN(S(=O)(=O)c1ccc(F)cc1)CC3  solubility kinetic             =     12.5
 6  O=S(=O)(c1cnc[nH]1)N1CCc2[nH]c3ccccc3c2C1  solubility kinetic             =       50
 7  O=S(=O)(c1ccc(F)cc1)N1CCc2[nH]c3ncccc3c2C1  solubility kinetic             =       50
 8  O=S(=O)(c1ccc(Cl)cc1)N1CCc2[nH]c3ccccc3c2C1  solubility kinetic             =      1.6
 9  O=S(=O)(c1ccc(F)cc1)N1CCc2[nH]c3ccccc3c2C1  solubility kinetic             =      1.6
10  O=C(O)c1ccc2[nH]c3c(c2c1)CN(S(=O)(=O)c1ccc(F)cc1)CC3  solubility kinetic             =      3.1
